Tested on: human breast carcinoma (MCF‐7) cells
Assay: Cytotoxicity, CCK8 cell viability
Assay type: cell-based
Conditions: MCF‐7, 48 h, 500 μM
Parameter Measured: decrease in cell viability (%)
Respond numerically; units are % and should not be typed.

Query block: Which value of decrease in cell viability has been reported for COc1ccc(C=C(C#N)c2ccccc2)cc1 in the records?
Result block: 99

Query block: Which value of decrease in cell viability has been reported for COc1ccc(/C=C(\C#N)c2cc(C(F)(F)F)cc(C(F)(F)F)c2)cc1 in the records?
Result block: 85

Query block: Which value of decrease in cell viability has been reported for COc1ccc(/C=C(\C#N)c2ccc(F)cc2)cc1 in the records?
Result block: 91

Query block: Which value of decrease in cell viability has been reported for O=c1[nH]cc(F)c(=O)[nH]1 [5‐FU, 5‐Fluorouracil, reference compound] in the records?
Result block: 95
